B1: library; numbered along this chain (parent)
chain: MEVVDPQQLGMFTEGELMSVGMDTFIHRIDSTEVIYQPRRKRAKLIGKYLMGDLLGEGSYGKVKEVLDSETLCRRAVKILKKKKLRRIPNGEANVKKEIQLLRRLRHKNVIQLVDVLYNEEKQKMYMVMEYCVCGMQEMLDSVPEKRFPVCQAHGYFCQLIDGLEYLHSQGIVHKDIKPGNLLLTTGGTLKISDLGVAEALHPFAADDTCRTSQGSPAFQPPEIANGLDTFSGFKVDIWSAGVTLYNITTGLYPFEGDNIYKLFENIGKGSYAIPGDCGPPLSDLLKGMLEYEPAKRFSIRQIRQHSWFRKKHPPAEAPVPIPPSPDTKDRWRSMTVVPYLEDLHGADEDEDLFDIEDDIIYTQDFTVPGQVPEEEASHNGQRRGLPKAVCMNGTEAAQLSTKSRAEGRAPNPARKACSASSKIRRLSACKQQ

Variants of: B1
Experiment Summary: STK11 functional score (HeLa growth suppression), rescaled enrichment; synonymous median = 1, nonsense median = 0 (normalised score)
Test Settings: with HeLa; variant type: missense
Recorded STK11 functional score for the following variants
// no unit string in output, number only

Worked cases, STK11 functional score given:
{"columns": ["Mut", "Readout Kind", "Numeric Result"],
 "data": [
  ["K312W", "STK11 functional score", 1.53],
  ["G408E", "STK11 functional score", 1.54],
  ["E317R", "STK11 functional score", 1.58],
  ["M127T", "STK11 functional score", 1.32]
]}

[ask] Could you tell me which STK11 functional score is on file for G251E ?
[reply] 0.412
